test system: Klebsiella pneumoniae; test: Minimum inhibitory concentration against Klebsiella pneumoniae MGH-2 in vitro.; type: functional
Please provide measured MIC for the entries that follow.
Numbers only, in µg/mL.

1. CC1COc2c(N3CCC(CN)C3)c(F)cc3c(=O)c(C(=O)O)cn1c23 (stereo not given); 0.4
2. CC(C)NCC1CCN(c2nc3c(cc2F)c(=O)c(C(=O)O)cn3C2CC2)C1 (stereo not given); 0.4
3. O=C(O)c1cn(C2CC2)c2nc(N3CCNCC3)c(F)cc2c1=O; 0.1
4. CNCC1CCN(c2c(F)cc3c(=O)c(C(=O)O)cn(C4CC4)c3c2N)C1.Cl (stereo not given); 3.1

Attention now turns to another entry.
Find the recorded MIC belonging to CN(C)CC1CCN(c2nc3c(cc2F)c(=O)c(C(=O)O)cn3C2CC2)C1 (stereo not given) and report it. 0.2

====

Kindly state log10 ED50 for each of the entries shown.
tested on: Streptococcus pneumoniae; assay: In vivo potency against Streptococcus pneumoniae using mouse protection assay following p.o. administration.; format: functional; conditions: po, read-out: PD50
// stored as log10 of ED50 expressed in mg/kg

Some entries whose results are on file:
1) CCNCC1CCN(c2c(F)cc3c(=O)c(C(=O)O)cn(C4CC4)c3c2F)C1 (centres undefined); 0.48
2) Cl.NC1CCN(c2c(F)cc3c(=O)c(C(=O)O)cn(C4CC4)c3c2F)C1 (centres undefined); 1.18

Items follow; give log10 ED50 for each.
1. CN(C)CC1CCN(c2cc3c(cc2F)c(=O)c(C(=O)O)cn3C2CC2)C1 (centres undefined)
2. O=C(O)c1cn(C2CC2)c2c(F)c(N3CCNCC3)c(F)cc2c1=O
3. Cl.NC1CCN(c2c(F)cc3c(=O)c(C(=O)O)cn(C4CC4)c3c2Cl)C1 (centres undefined) [CLINAFLOXACIN HYDROCHLORIDE]
4. Cl.Cl.NC1CCN(c2cc3c(cc2F)c(=O)c(C(=O)O)cn3C2CC2)C1 (centres undefined)
5. CN(C)CC1CCN(c2c(F)cc3c(=O)c(C(=O)O)cn(C4CC4)c3c2F)C1 (centres undefined)
6. CN(C)CC1CCN(c2c(F)cc3c(=O)c(C(=O)O)cn(C4CC4)c3c2Cl)C1 (centres undefined)

1. 1.26
2. 1.77
3. 1.00
4. 1.63
5. 0.70
6. 0.30

====

tested on: Escherichia coli; experiment: Minimum concentration needed to produce linear DNA at an intensity relative to oxolinic at 10 ug/mL in Escherichia coli H560 in vitro.; format: functional
I'd appreciate it if you could supply DNA cleavage conc (gyrase) values for the items below.
Give bare numbers, in µg/mL.

Sample answers from the record:
1) CCNCC1CCN(c2c(F)cc3c(=O)c(C(=O)O)cn(C4CC4)c3c2N)C1.Cl.Cl (stereo not given); 2.5
2) CN(C)CC1CCN(c2nc3c(cc2F)c(=O)c(C(=O)O)cn3C2CC2)C1 (stereo not given); 0.75
3) CNCC1CCN(c2nc3c(cc2F)c(=O)c(C(=O)O)cn3C2CC2)C1 (stereo not given); 1

Quick one: give me DNA cleavage conc (gyrase) for each item below, same order please.
1. O=C(O)c1cn(C2CC2)c2nc(N3CCNCC3)c(F)cc2c1=O
2. Cl.NC1CCN(c2c(F)cc3c(=O)c(C(=O)O)cn(C4CC4)c3c2Cl)C1 (stereo not given) [CLINAFLOXACIN HYDROCHLORIDE]
3. CNCC1CCN(c2cc3c(cc2F)c(=O)c(C(=O)O)cn3C2CC2)C1 (stereo not given)
4. NC1CCN(c2nc3c(cc2F)c(=O)c(C(=O)O)cn3C2CC2)C1 (stereo not given)
5. CCNCC1CCN(c2cc3c(cc2F)c(=O)c(C(=O)O)cn3C2CC2)C1.Cl (stereo not given)
6. CN(C)CC1CCN(c2c(F)cc3c(=O)c(C(=O)O)cn(C4CC4)c3c2F)C1 (stereo not given)

[1, 0.5, 0.5, 1, 1, 0.1]

List the reported DNA cleavage conc (gyrase) of each molecule below.
1. CNCC1CCN(c2c(F)cc3c(=O)c(C(=O)O)cn4c3c2OCC4C)C1 (stereo not given)
2. CNCC1CCN(c2c(F)cc3c(=O)c(C(=O)O)cn(C4CC4)c3c2F)C1 (stereo not given)
3. CCNCC1CCN(c2c(F)cc3c(=O)c(C(=O)O)cn(C4CC4)c3c2Cl)C1 (stereo not given)
4. NCC1CCN(c2c(F)cc3c(=O)c(C(=O)O)cn(C4CC4)c3c2F)C1 (stereo not given)
5. CC(C)NCC1CCN(c2nc3c(cc2F)c(=O)c(C(=O)O)cn3C2CC2)C1 (stereo not given)
6. CCNCC1CCN(c2nc3c(cc2F)c(=O)c(C(=O)O)cn3C2CC2)C1 (stereo not given)
7. CCNCC1CCN(c2c(F)cc3c(=O)c(C(=O)O)cn(C4CC4)c3c2F)C1 (stereo not given)

1. 1
2. 0.25
3. 0.1
4. 0.25
5. 2.5
6. 0.75
7. 0.25

State the recorded DNA cleavage conc (gyrase) for every item in the following list.
1. Cl.Nc1c(N2CCC(N)C2)c(F)cc2c(=O)c(C(=O)O)cn(C3CC3)c12 (stereo not given)
2. NCC1CCN(c2cc3c(cc2F)c(=O)c(C(=O)O)cn3C2CC2)C1 (stereo not given)
3. CC1COc2c(N3CCC(CN(C)C)C3)c(F)cc3c(=O)c(C(=O)O)cn1c23.Cl (stereo not given)
4. O=C(O)c1cn(C2CC2)c2c(F)c(N3CCNCC3)c(F)cc2c1=O

18
0.5
1
0.5
